# Method Summary: chemical genetic growth profiling, strain panel (AID 1159580);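 note: tested at 20 µM; growth read once vehicle control cultures reached saturation at 30 °C; 1 = growth at the plate median or of vehicle wells; lower values mean less growth of the strain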
# Condition Notes: S. cerevisiae deletion strains, growth OD, locus YBR136W, strain MEC1, active compounds read low
Out of some 5,500 compounds screened, about 2,000 (36%) were called active. Roughly 18% stayed inconclusive and do not appear here. The list shows a part of the results.
Property Name: normalized growth
Response field accepts a number only; no unit should be typed.

Please review the entries below; each comes with its answer.
• O=C(c1csc(-c2ccc(Cl)cc2)c1)N1CCCCC1 = 0.952
• Cc1cc(C)cc(Sc2ccc3nnc(-c4ccccc4)n3n2)c1 = 0.977
• C/C(Cc1nnn(-c2cc(C)on2)n1)=N/OC(=O)Nc1ccc(Cl)cc1 = 0.985
• Cc1cc(C(=O)NNS(=O)(=O)c2ccc(F)c(Cl)c2)nn1-c1c(Cl)cc(Cl)cc1Cl = 0.987
• O=[N+]([O-])c1ccc(-c2noc(-c3ccno3)n2)o1 = 0.119

Reported normalized growth for `Cc1c(C(=O)Sc2ccc(F)cc2F)sc2nc(C(F)(F)F)nn12` was 0.0954

Reported normalized growth for `CCCN(CCC)C(=S)NC(=O)c1cccc([N+](=O)[O-])c1` was 0.966

Reported normalized growth for `N#C/C(=N/Nc1ccc(F)cc1)S(=O)(=O)c1ccc(Cl)cc1` was 0.969

Reported normalized growth for `O=C(Nc1cccc(C(F)(F)F)c1)c1cncc(C#Cc2ccccc2)c1` was 0.982

Reported normalized growth for `CCOC(=O)c1ccc2nc(N=CNO)sc2c1` was 0.951

###

# Method Summary: chemical genetic growth profiling, strain panel (AID 1159580)
# Condition Notes: S. cerevisiae deletion strains, growth OD, locus YKL085W, strain MDH1 (second series), active compounds read low
The whole screen tested about 5,500 compounds, of which about 2,000 (36%) were called active. Not shown: some 18% with an inconclusive outcome. Some of the results follow.
Items are presented alongside their recorded normalized growth.
Response field accepts a number only; no unit should be typed.

Please review the entries below; each comes with its answer.
- C=C[C@@](C)(O)CCC1C(=C)C[C@H](OC(C)=O)C2C(C)(C)CCCC12C (stereo not given in full): 0.977
- C=C1C2CC[C@@]3(C)[C@H](c4ccoc4)OC(=O)C[C@]13O[C@H]1CC(=O)C(C)(C)[C@H](C(OC(C)=O)C(=O)OC)[C@@]21C (stereo not given in full): 0.981
- COc1ccc2c(c1)OC1(O)COc3cc(OC)c(OC)cc3C1=C2 (stereo not given): 0.98
- Nc1nc(=S)c2[nH]cnc2[nH]1: 1.02
- C=C[C@@](C)(O)CCC1C(=C)CCC2[C@@](C)(CO)CCC[C@]12C (stereo not given in full): 0.994

Reported normalized growth for CC1(C)CCC[C@@]2(C)C1[C@@H](O)C[C@]1(C)C2CC[C@@H]2[C@@]3(C)CC[C@H](C(C)(C)O)[C@@H]3CC[C@@]21C (stereo not given in full) was 1.04

Reported normalized growth for CC(C)NCC(O)COc1cccc2[nH]ccc12 (stereo not given) was 0.968

Reported normalized growth for Clc1ccc(C(OCCN2CCCCC2)c2ccccc2)cc1 (stereo not given) was 0.997

Reported normalized growth for OCC(O)CN1CCN(c2ccccc2)CC1 (stereo not given) was 0.99

Reported normalized growth for `Cc1[nH]c2ccccc2c1CN(C)C` was 0.997

###

# Method Summary: chemical genetic growth profiling, strain panel (AID 1159580);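 note: tested at 20 µM; growth read once vehicle control cultures reached saturation at 30 °C; 1 = growth at the plate median or of vehicle wells; lower values mean less growth of the strain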
# Condition Notes: S. cerevisiae deletion strains, growth OD, locus YOL136C, strain PFK27, active compounds read low
Out of some 5,500 compounds screened, about 2,000 (36%) were called active. About 18% were inconclusive and are not listed. The list shows a part of the results.
Property Name: normalized growth

Please review the entries below; each comes with its answer.
* CC(=O)/C(C#N)=N\Nc1ccc(F)cc1 | 0.114 (active)
* N#C/C(=N/Nc1ccc(F)cc1)S(=O)(=O)c1ccc(Cl)cc1 | 0.905 (inactive)

Reported normalized growth for `O=C(NCc1ccc(Cl)c(Cl)c1)c1cccnc1OCC(F)(F)F` was 0.968 (inactive)

Reported normalized growth for `Cc1nn(C)c(C(=O)Sc2ccc(OC(F)(F)F)cc2)c1[N+](=O)[O-]` was 0.935 (inactive)

Reported normalized growth for `C/C(Cc1nnn(-c2cc(C)on2)n1)=N/OC(=O)Nc1ccc(Cl)cc1` was 0.946 (inactive)

Reported normalized growth for `O=C(ON=C1CCCCC1)c1ccc([N+](=O)[O-])cc1` was 0.85 (inactive)

Reported normalized growth for `O=C(Oc1cccc2[nH]ccc12)c1ccc(C(F)(F)F)cc1` was 0.815 (inactive)

Reported normalized growth for `N#C/C(=N/Nc1ccc(F)cc1)C(=O)c1ccccc1` was 0.885 (inactive)

Reported normalized growth for `COc1cc(Cl)ccc1N/N=C(/C#N)C(N)=O` was 0.115 (active)

Reported normalized growth for `O=C(c1csc(-c2ccc(Cl)cc2)c1)N1CCCCC1` was 0.823 (inactive)

###

# Method Summary: chemical genetic growth profiling, strain panel (AID 1159580);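 note: tested at 20 µM; growth read once vehicle control cultures reached saturation at 30 °C; 1 = growth at the plate median or of vehicle wells; lower values mean less growth of the strain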
# Condition Notes: S. cerevisiae deletion strains, growth OD, locus YIL125W, strain kgd1, active compounds read low
Out of some 5,500 compounds screened, about 2,000 (36%) were called active. About 18% were inconclusive and are not listed. Some of the results follow.
Property Name: normalized growth
Response field accepts a number only; no unit should be typed.

* CCC(C)C(=O)O[C@@H]1C[C@@]2(C)[C@H](c3ccoc3)OC(=O)CC23OC2(C)OC34[C@H](OC(=O)C(C)C)[C@@]3(O)[C@@H](OC(=O)C5(C)OC5C)[C@@]5(C)C[C@]3(O)[C@@](C)([C@H]5CC(=O)OC)C14O2 (some centres not stated) | 1
* COc1ccc(-c2coc3cc(OC)ccc3c2=O)cc1 | 0.941
* COc1ccc(-c2coc3cc(O)ccc3c2=O)cc1 | 0.966
* Oc1ccc2c(c1)O[C@H](c1ccc(O)c(O)c1)[C@@H](O)C2 | 1.02
* OCC(O)CN1CCN(c2ccccc2)CC1 (configuration not stated) | 1
* COC(=O)C[C@H]1C2(C)CC34OC5(C)O[C@@]6([C@H](OC(C)=O)C(OC(C)=O)[C@]7(C)C(/C(=C(/O)C(C)C)C(=O)O[C@H]7c7ccoc7)[C@@]6(O5)[C@H](OC(C)=O)[C@@]3(O)C2OC(=O)C(C)C)[C@]14C (some centres not stated) | 1
* COC(=O)CC1C2(C)CC34OC5(C)OC6(C7/C(=C(/O)C(C)C)C(=O)OC(c8ccoc8)C7(C)C(OC(=O)C(C)C)C(OC)C6(O5)C13C)C(OC)C4(OC)C2OC(C)=O (configuration not stated) | 0.991
* CC(=O)O[C@H]1C[C@@H](OC(C)=O)C(C)(C)C2CC(=O)[C@]3(C)C(CC[C@@]4(C)[C@H](C(=O)O)OC(=O)C5OC543)[C@]21C (some centres not stated) | 0.992

Reported normalized growth for Oc1cc(O)c2c(c1)OC(c1cc(O)c(O)c(O)c1)C(O)C2c1c(O)cc(O)c2c1OC(c1cc(O)c(O)c(O)c1)C(O)C2c1c(O)cc(O)c2c1OC(c1cc(O)c(O)c(O)c1)C(O)C2 (configuration not stated) was 1.02

Reported normalized growth for `O=C(O)/C=C/c1ccc(O)c(O)c1` was 1.01

###

# Method Summary: chemical genetic growth profiling, strain panel (AID 1159580);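 note: tested at 20 µM; growth read once vehicle control cultures reached saturation at 30 °C; 1 = growth at the plate median or of vehicle wells; lower values mean less growth of the strain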
# Condition Notes: S. cerevisiae deletion strains, growth OD, locus YJL129C, strain trk1
In all, about 5,500 compounds went through this assay and about 2,000 (36%) were called active. Not shown: some 18% with an inconclusive outcome. No stated cut-off is given here; in the data, active means normalized growth mostly below about 0.91 (no sharp cut-off); inconclusive means no clear call, values can overlap the other calls; inactive means mostly above about 0.92. The list shows a part of the results.
Pick one and only one: active, inactive

Observe how each entry below is paired with its result.
* O=S(=O)(O)CCS | inactive
* CN(C)CCN(Cc1cccs1)c1ccccn1 | inactive
* COc1ccc(-c2coc3cc(O)ccc3c2=O)c(OC)c1O | inactive
* COC(=O)C[C@H]1C2(C)CC34OC5(C)O[C@@]6([C@H](OC)C(OC(=O)C(C)C)[C@]7(C)C(/C(=C(/OC)C(C)C)C(=O)O[C@H]7c7ccoc7)[C@@]6(O5)[C@H](OC)[C@@]3(OC)C2OC(C)=O)[C@]14C (stereo partly drawn) | inactive
* CCCCCCCCCCCCCc1ccco1 | inactive
* O=C(O)CCCc1ccc(N(CCCl)CCCl)cc1 | inactive

Prompt line: What outcome does the record of this test show for `CC[C@@]1(O)C[C@H](O)c2c(cc3c(c2O)C(=O)c2c(O)ccc(O)c2C3=O)[C@H]1C(=O)OC` ?
Response line: inactive

Prompt line: What outcome does the record of this test show for CN1C2CCC1CC(OC(c1ccccc1)c1ccccc1N)C2 (stereo not drawn) ?
Response line: inactive

Prompt line: What outcome does the record of this test show for `CC[C@@]1(O)C[C@H](O[C@H]2C[C@H](N(C)C)[C@H](O)[C@H](C)O2)c2c(cc3c(c2O)C(=O)c2c(O)ccc(O)c2C3=O)[C@H]1C(=O)OC` ?
Response line: inactive

Prompt line: What outcome does the record of this test show for `CN(C)CCN(Cc1ccccc1)c1ccccn1` ?
Response line: inactive
